experiment: Emission property of the compound in DMSO assessed as maximum emission wavelength at 4 uM by fluorescence spectrophotometric method; format: physicochemical
observation_type: Activity (nm)
Give bare numbers, in nm.

Field: example entries. Status: answers known.
smiles_entry: Cc1ccc(-c2c3nc(c(-c4ccc(C)cc4)c4ccc([nH]4)c(-c4ccc(C)cc4)c4nc(c(-c5ccc(C)cc5)c5ccc2[nH]5)C=C4N2CCCC2)C=C3)cc1
Activity [nm]: 671
--
smiles_entry: C1=Cc2nc1c(-c1ccccc1)c1ccc([nH]1)c(-c1ccccc1)c1nc(c(-c3ccccc3)c3ccc([nH]3)c2-c2ccccc2)C(N2CCCC2)=C1
Activity [nm]: 665

I would be grateful if you could share the reported Activity for COc1ccc(-c2c3nc(c(-c4ccc(OC)cc4)c4ccc([nH]4)c(-c4ccc(OC)cc4)c4nc(c(-c5ccc(OC)cc5)c5ccc2[nH]5)C=C4N2CCCC2)C=C3)cc1 .
683

----------
Please respond with reported Activity for every item in the list.
test: Absorption property of the compound in DMSO assessed as Q band maximum absorption wavelength by UV-visible spectrophotometric method; type: physicochemical
One number for each entry, in nm.

Respectfully, I request Activity for each entry included below.
1. COc1ccc(-c2c3nc(c(-c4ccc(OC)cc4)c4ccc([nH]4)c(-c4ccc(OC)cc4)c4nc(c(-c5ccc(OC)cc5)c5ccc2[nH]5)C=C4N2CCCC2)C=C3)cc1
2. C1=Cc2nc1c(-c1ccccc1)c1ccc([nH]1)c(-c1ccccc1)c1nc(c(-c3ccccc3)c3ccc([nH]3)c2-c2ccccc2)C(N2CCCC2)=C1
3. Cc1ccc(-c2c3nc(c(-c4ccc(C)cc4)c4ccc([nH]4)c(-c4ccc(C)cc4)c4nc(c(-c5ccc(C)cc5)c5ccc2[nH]5)C=C4N2CCCC2)C=C3)cc1

[603, 601, 602]

----------
Please respond with reported Activity for every item in the list.
experiment: Emission property of the compound in DMSO assessed as stokes shift by fluorescence spectrophotometric method; format: physicochemical
One number for each entry, in nm.

smiles_entry: C1=Cc2nc1c(-c1ccccc1)c1ccc([nH]1)c(-c1ccccc1)c1nc(c(-c3ccccc3)c3ccc([nH]3)c2-c2ccccc2)C(N2CCCC2)=C1
Activity [nm]: 1

smiles_entry: C1=Cc2nc1c(-c1ccccc1)c1ccc([nH]1)c(-c1ccccc1)c1nc(c(-c3ccccc3)c3ccc([nH]3)c2-c2ccccc2)C(N2CCCCC2)=C1
Activity [nm]: 19

smiles_entry: Cc1ccc(-c2c3nc(c(-c4ccc(C)cc4)c4ccc([nH]4)c(-c4ccc(C)cc4)c4nc(c(-c5ccc(C)cc5)c5ccc2[nH]5)C=C4N2CCCC2)C=C3)cc1
Activity [nm]: 4

smiles_entry: C1=Cc2nc1c(-c1ccccc1)c1ccc([nH]1)c(-c1ccccc1)c1nc(c(-c3ccccc3)c3ccc([nH]3)c2-c2ccccc2)C(N2CCOCC2)=C1
Activity [nm]: 13

smiles_entry: Clc1ccc(-c2c3nc(c(-c4ccc(Cl)cc4)c4ccc([nH]4)c(-c4ccc(Cl)cc4)c4nc(c(-c5ccc(Cl)cc5)c5ccc2[nH]5)C=C4N2CCCC2)C=C3)cc1
Activity [nm]: 17

I would be grateful if you could share the reported Activity for COc1ccc(-c2c3nc(c(-c4ccc(OC)cc4)c4ccc([nH]4)c(-c4ccc(OC)cc4)c4nc(c(-c5ccc(OC)cc5)c5ccc2[nH]5)C=C4N2CCCC2)C=C3)cc1 .
15

----------
assay: Absorption property of the compound in DMSO assessed as soret band wavelength molar absorption coefficient by UV-visible spectrophotometric method; format: physicochemical
observation_type: Activity (nm)
Give bare numbers, in nm.

Field: example entries. Status: answers known.
smiles_entry: Clc1ccc(-c2c3nc(c(-c4ccc(Cl)cc4)c4ccc([nH]4)c(-c4ccc(Cl)cc4)c4nc(c(-c5ccc(Cl)cc5)c5ccc2[nH]5)C=C4N2CCCC2)C=C3)cc1
Activity [nm]: 521
--
smiles_entry: Cc1ccc(-c2c3nc(c(-c4ccc(C)cc4)c4ccc([nH]4)c(-c4ccc(C)cc4)c4nc(c(-c5ccc(C)cc5)c5ccc2[nH]5)C=C4N2CCCC2)C=C3)cc1
Activity [nm]: 531
--
smiles_entry: COc1ccc(-c2c3nc(c(-c4ccc(OC)cc4)c4ccc([nH]4)c(-c4ccc(OC)cc4)c4nc(c(-c5ccc(OC)cc5)c5ccc2[nH]5)C=C4N2CCCC2)C=C3)cc1
Activity [nm]: 535

Respectfully, I request Activity for each entry included below.
1. C1=Cc2nc1c(-c1ccccc1)c1ccc([nH]1)c(-c1ccccc1)c1nc(c(-c3ccccc3)c3ccc([nH]3)c2-c2ccccc2)C(N2CCCCC2)=C1
2. C1=Cc2nc1c(-c1ccccc1)c1ccc([nH]1)c(-c1ccccc1)c1nc(c(-c3ccccc3)c3ccc([nH]3)c2-c2ccccc2)C(N2CCCC2)=C1
3. C1=Cc2nc1c(-c1ccccc1)c1ccc([nH]1)c(-c1ccccc1)c1nc(c(-c3ccccc3)c3ccc([nH]3)c2-c2ccccc2)C(N2CCOCC2)=C1

1: 524; 2: 528; 3: 522

----------
Please respond with reported Activity for every item in the list.
test: Absorption property of the compound in DMSO assessed as Q band wavelength molar absorption coefficient by UV-visible spectrophotometric method; assay type: physicochemical
Numbers only, in nm.

smiles_entry: Clc1ccc(-c2c3nc(c(-c4ccc(Cl)cc4)c4ccc([nH]4)c(-c4ccc(Cl)cc4)c4nc(c(-c5ccc(Cl)cc5)c5ccc2[nH]5)C=C4N2CCCC2)C=C3)cc1
readout_units: nm
measured_result: 648

Respectfully, I request Activity for each entry included below.
1. C1=Cc2nc1c(-c1ccccc1)c1ccc([nH]1)c(-c1ccccc1)c1nc(c(-c3ccccc3)c3ccc([nH]3)c2-c2ccccc2)C(N2CCCCC2)=C1
2. Cc1ccc(-c2c3nc(c(-c4ccc(C)cc4)c4ccc([nH]4)c(-c4ccc(C)cc4)c4nc(c(-c5ccc(C)cc5)c5ccc2[nH]5)C=C4N2CCCC2)C=C3)cc1

1. 650
2. 666
